Below: a set of entries, each annotated with reported glycan array binding signal (z-score).
Target desc: Neu5Ac(a2-6)Gal(b1-4)GlcNAc(b1-6)[Gal(b1-3)GlcNAc(b1-3)]Gal(b1-4)Glc
Procedure text: glycan array binding signal (z-score within array); higher = stronger binding
Condition set: glycan notation: IUPAC condensed, linker removed
About 410 targets per protein were measured; listed, in parts, are those with the strongest signals and a random draw of the rest.
Measurement type: glycan array binding signal (z-score)

>>> data_value("Epa23 (Candida glabrata) (protein) MGSSHHHHHHSSGLVPRGSHMIPNPFEGTINNFPSGCSPNHGLYNRGLTMELYNYSYIHPQSIQSYFNTSTLKKMEKGQCWDPSYLDVNYPRTGYKTHNRFAKVNGIDGILDFEFNPTRSCVPSKGQLPQNYNYPLQFTLSNFTMLLYGYFKPKVTAKHTFTIFADDLLFLNFGAGNAFDCCQQQDTIDDFGNYQAYALWGSDTQQNTLTVNLDANIYYPIRMFYNNRDFKGALNMYFTTDESNTKINDFSGYLFNIPDSSEGCPAHISYETECGNVSG")
-0.13
>>> data_value("SJCP1531 (Schistosoma japonicum) (protein) MFKVRIINLVNISTVLLLINLLQTKSQVNVEQLVTVLEVNIKAQLKNKTTEVLVEWNPLYQDNSMPEYRKLLDETCKLFLPFVNEKVPPSTYGGECTNANFSEAPQDGSYSRVNAELRLIYKYSDNPQIQTDRLQDDLNDREEFITSESSFVAYNPKFTVKIEKLFIPISESQTTPPPTTAKNDASKKDDDDNGGEDSKAPIDTFAMTASGNKGKKDDDDNGGEDSKAPIDTFAMTASGSKDERSTWTIIGIITLVVLIFVVIGGGITVFVKRC")
0.485
>>> data_value("Epa8 (Candida glabrata) (protein) MGSSHHHHHHSSGLVPRGSHMASSRALSDYPLGCSPLLGTKLTPGLSMELYEYPLDNHGIGPHCWDPAYLNPEYPRTGFESHKLIGTAQNVMSLNFEHRTQDCHVEFSNLPASFNFPDQITLTNFTMLLYGYFKPKESGRYRFHMEADDLLLMNLGAGNAFDCCAHEATRNNLGDYIAYDIWAGTRKDVEVFLEKEVFYPLRLFFNNRDGRAALDFSYYLNGATEPGTDIPELLFSLPDGESCPAYI")
-0.638
>>> data_value("Epa9 (Candida glabrata), CAGL0A01386g (protein) MGSSHHHHHHSSGLVPRGSHMDITPFAHYPRPEGCSSPPNAVSVGLHMDLYNYPYLYVKNPRTGFTNDTDSDADGETDGDSAGGIEGRAGQCWNPEYQDPNFPRYGYKKYGSFGSSDHVNGKISWDHNEFKEGCKPIMARLPTAYNYPAKITFSNFTMVLSGYFKPKSTGLYKFEIHADDFILFNFGSKNAFECCNREESIDNFGPYVAYAMWPNEADQELEVYLFEDSYYPIRLFYNNRDYHSKFMVGFYPPNTEEITYDFDGYLYMLDDTGNECKDSIRYKTVCDD")
-0.304
